- test_target: human GluN1/GluN2B NMDA receptors (Homo sapiens, UniProt Q05586+Q13224)
- Sequence (Q13224 27-1484, other chains not shown): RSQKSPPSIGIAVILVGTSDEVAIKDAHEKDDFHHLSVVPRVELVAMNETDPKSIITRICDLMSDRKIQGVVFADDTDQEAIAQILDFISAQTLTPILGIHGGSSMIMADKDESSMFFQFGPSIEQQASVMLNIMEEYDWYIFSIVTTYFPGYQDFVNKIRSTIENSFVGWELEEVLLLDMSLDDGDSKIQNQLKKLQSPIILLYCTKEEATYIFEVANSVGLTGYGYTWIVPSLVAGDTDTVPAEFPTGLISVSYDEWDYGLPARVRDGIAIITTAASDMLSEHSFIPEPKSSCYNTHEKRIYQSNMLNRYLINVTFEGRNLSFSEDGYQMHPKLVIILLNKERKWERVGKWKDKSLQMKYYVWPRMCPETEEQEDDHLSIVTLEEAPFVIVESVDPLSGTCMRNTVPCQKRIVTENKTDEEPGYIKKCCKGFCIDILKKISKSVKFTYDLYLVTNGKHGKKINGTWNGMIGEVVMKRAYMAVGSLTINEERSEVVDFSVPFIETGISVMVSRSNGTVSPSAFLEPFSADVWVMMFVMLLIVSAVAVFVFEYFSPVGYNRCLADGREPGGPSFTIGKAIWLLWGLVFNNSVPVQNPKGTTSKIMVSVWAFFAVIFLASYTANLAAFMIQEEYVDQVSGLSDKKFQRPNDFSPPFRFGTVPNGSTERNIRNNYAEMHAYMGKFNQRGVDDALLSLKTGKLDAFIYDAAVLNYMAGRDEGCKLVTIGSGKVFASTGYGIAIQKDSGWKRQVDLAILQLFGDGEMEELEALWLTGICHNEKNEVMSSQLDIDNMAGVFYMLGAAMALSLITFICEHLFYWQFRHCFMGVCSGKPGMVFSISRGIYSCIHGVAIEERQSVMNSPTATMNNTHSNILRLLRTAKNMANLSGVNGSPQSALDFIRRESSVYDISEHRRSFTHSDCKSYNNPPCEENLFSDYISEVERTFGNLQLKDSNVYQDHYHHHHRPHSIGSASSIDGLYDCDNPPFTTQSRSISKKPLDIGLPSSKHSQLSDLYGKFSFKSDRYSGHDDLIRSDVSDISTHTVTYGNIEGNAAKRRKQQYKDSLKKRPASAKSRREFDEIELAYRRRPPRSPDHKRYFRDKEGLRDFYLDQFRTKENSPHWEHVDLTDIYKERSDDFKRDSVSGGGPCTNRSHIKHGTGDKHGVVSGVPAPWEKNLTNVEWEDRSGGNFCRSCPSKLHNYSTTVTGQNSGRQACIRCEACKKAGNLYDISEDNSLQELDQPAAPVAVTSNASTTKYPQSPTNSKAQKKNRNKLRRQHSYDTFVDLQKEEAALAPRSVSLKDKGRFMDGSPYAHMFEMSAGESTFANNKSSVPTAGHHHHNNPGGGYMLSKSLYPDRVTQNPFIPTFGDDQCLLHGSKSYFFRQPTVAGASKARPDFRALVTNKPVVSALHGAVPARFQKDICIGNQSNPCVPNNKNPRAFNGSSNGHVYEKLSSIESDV
- experimental_details: Cell-based calcium flux (FLIPR) assay on cloned human NR1/NR2B ion channels expressed in mammalian cells
- recorded_conditions: standard assay; human GluN1/GluN2B, calcium flux (FLIPR), glutamate ~EC80

compound	IC50
Fc1cnc(OCc2cn(-c3cccc(OC(F)(F)F)c3)nn2)nc1	0.447 µM
Nc1ccnc(OCc2cn(-c3ccc(Cl)c(OC(F)F)c3)nn2)n1	0.021 µM
CC(F)(F)c1cc(-n2cc(COc3ncc(C(F)(F)F)cn3)nn2)ccc1F	0.04 µM
Cc1nc(OCc2cn(-c3ccc4c(c3)CCC4)nn2)ncc1Cl	0.039 µM
Cc1nc(OCc2cn(-c3ccc4c(c3)OC(F)(F)O4)nn2)ncc1F	0.35 µM
Fc1ccc(-n2cc(COc3ccc(C(F)(F)F)cn3)nn2)cc1OC(F)F	0.114 µM
COc1cnc(OCc2cn(-c3ccccc3C)nn2)nc1	5.99 µM
CCc1cnc(OCc2cn(-c3ccc(C)cc3)nn2)nc1	0.093 µM
Fc1ccnc(OCc2cn(-c3ccc(Cl)c(OC(F)F)c3)nn2)n1	0.023 µM
CC(C)c1cnc(OCc2cn(-c3ccc(Cl)c(OC(F)F)c3)nn2)nc1	0.01 µM
Fc1ccc(-n2cc(CNc3ncccn3)nn2)cc1OC(F)F	0.351 µM
COc1cnc(OCc2cn(-c3ccc(F)c(C(C)(F)F)c3)nn2)nc1	0.007 µM
COc1cnc(OCc2cn(-c3cccc(C(F)F)c3)nn2)nc1	0.012 µM
COc1cnc(OCc2cn(-c3cccc(C(C)C)c3)nn2)nc1	0.006 µM
CC(C)(O)c1cnc(OCc2cn(-c3cccc(OC(F)(F)F)c3)nn2)nc1	0.284 µM
Fc1ccc(-n2cc(CNc3ccccn3)nn2)cc1OC(F)F	0.724 µM
FCCOc1cnc(OCc2cn(-c3ccc(Cl)c(OC(F)F)c3)nn2)nc1	0.03 µM
CCc1cnc(OCc2cn(-c3cccc(OC(F)F)c3)nn2)nc1	0.029 µM
FC(F)Oc1cc(-n2cc(COc3ncccc3Cl)nn2)ccc1Cl	0.059 µM
Cc1cnc(OC(C)c2cn(-c3ccc(Cl)c(OC(F)F)c3)nn2)nc1 (single isomer, unassigned) [Example 58]	0.007 µM
CNc1nc(OCc2cn(-c3ccc(Cl)c(OC(F)F)c3)nn2)ncc1F	0.033 µM
Cc1ccc(-n2cc(COc3ncc(Cl)cn3)nn2)cc1	0.711 µM
Cc1cnc(OCc2cn(-c3cccc(C(F)(F)F)c3)nn2)nc1C	0.007 µM
Cc1cnc(O[C@@H](C)c2cn(-c3ccc(Cl)c(OC(F)F)c3)nn2)nc1	0.237 µM
Cn1nccc1NCc1cn(-c2ccc(F)c(C(F)F)c2)nn1	> 10 µM
COc1cnc(O[C@@H](C)c2cn(-c3ccc(Cl)c(OC(F)F)c3)nn2)nc1	0.196 µM
Fc1ccc(-n2cc(COc3nccc(N4CCOCC4)n3)nn2)cc1OC(F)F	0.26 µM
Cn1cc(NCc2cn(-c3ccc(F)c(OC(F)F)c3)nn2)cn1	3.25 µM
Fc1cnc(OCc2cn(-c3cccc(OC(F)F)c3)nn2)nc1	0.494 µM
Cc1cc(C)cc(-n2cc(COc3ncccn3)nn2)c1	0.791 µM
Cc1cnc(OCc2cn(-c3cccc(C(C)C)c3)nn2)nc1	0.01 µM
Fc1ccc(-n2cc(COc3ccc(Cl)cn3)nn2)cc1OC(F)F	0.073 µM
Cc1cccc(OCc2cn(-c3ccc(F)c(C(F)F)c3)nn2)n1	0.038 µM
Cc1cnc(OCc2cn(-c3cccc(OC(F)F)c3)nn2)nc1	0.015 µM
Fc1ccc(-n2cc(CNc3ncccn3)nn2)cc1C(F)F	0.824 µM
Fc1cnc(OCc2cn(-c3ccc(Cl)c(OC(F)F)c3)nn2)cn1	1.46 µM
Cc1cnc(OCc2cn(-c3cccc(C(C)(F)F)c3)nn2)nc1N	0.006 µM

Where do the numbers come from? From patent US10233173B2.
